Biological target: NDM-1 (Klebsiella pneumoniae, UniProt C7C422)
Sequence (C7C422 29-270, looked up, species assumed): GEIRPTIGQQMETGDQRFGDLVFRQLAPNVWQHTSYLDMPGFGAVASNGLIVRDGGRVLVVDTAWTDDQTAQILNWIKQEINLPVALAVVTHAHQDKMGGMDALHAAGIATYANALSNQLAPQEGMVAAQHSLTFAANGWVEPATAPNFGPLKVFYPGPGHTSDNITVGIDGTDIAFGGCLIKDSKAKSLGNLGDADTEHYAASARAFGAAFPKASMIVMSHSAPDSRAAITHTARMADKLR
Assay: Enzyme activity: determination of IC50, fluorescence assay with CCF2-FA substrate
Type: biochemical
Conditions: enzyme 1 pM, CCF2-FA 1.25 μM, 2 hours at 25° C.; read-out: NDM1 IC50
# IC50 per record follows

Examples from the recorded data:
CCC[C@H](C(=O)O)[C@H](Cc1ccc(-c2cnc(N(C)S(C)(=O)=O)nc2)cc1)c1nnn[nH]1 [Example 242] = 9.3 nM
CC(C)C[C@H](C(=O)O)[C@H](Cc1ccc2ncc(N)cc2c1)c1nnn[nH]1 [Example 119] = 12 nM
CC(C)C[C@H](C(=O)O)[C@H](Cc1ccc(-c2ccc(CO)cc2)nc1)c1nn[nH]n1 [Example 177] = 40 nM
CC(C)=CCC[C@@H](C(=O)O)[C@H](Cc1ccccc1)c1nnn[nH]1 [Example 14] = 150 nM
CCC[C@H](C(=O)O)[C@H](Cc1cccc2sc(N)nc12)c1nn[nH]n1 [Example 155] = 12 nM
CC[C@H](C)[C@H](C(=O)O)[C@H](Cc1ccc(-c2ccc(-c3nnn[nH]3)cc2)cc1)c1nn[nH]n1 [Example 58] = < 0.64 nM
CCC[C@H](C(=O)O)[C@H](Cc1ccc(-c2ccc(CN(C)C)cc2)cc1)c1nnn[nH]1 [Example 240] = 100 nM
O=C(O)[C@@H](CCCCO)[C@H](Cc1ccccc1)c1nnn[nH]1 [Example 32] = 720 nM
CC(C)[C@H](C(=O)O)[C@H](Cc1ccc(-c2ccc3c(c2)CNC3)nc1)c1nnn[nH]1 [Example 76] = 120 nM
CC(C)C[C@H](C(=O)O)[C@H](Cc1ccc(N2CCNCC2)c(F)c1)c1nn[nH]n1 [Example 146] = 36 nM

The compound identified as CCC[C@H](C(=O)O)[C@H](Cc1ccc(-c2ccc(N3CCOCC3)nc2)cc1)c1nn[nH]n1 [Example 203] registered its IC50 at 14 nM

Value of IC50 reported for the compound CCC[C@H](C(=O)O)[C@H](Cc1ccccc1C#N)c1nnn[nH]1 [Example 43] is 22 nM

The compound CC(C)C[C@H](C(=O)O)[C@H](Cc1ccc(Br)c(F)c1)c1nnn[nH]1 [Example 23] showed IC50 equal to 20 nM

Lab book: IC50 of CC(C)CCCCC[C@H](C(=O)O)[C@H](Cc1ccc2c(c1)OCO2)c1nnn[nH]1 [Example 38] noted as 12 nM

Entry CCC[C@H](C(=O)O)[C@H](Cc1ccc(-c2ccc(C(=O)NC)cc2)cc1)c1nn[nH]n1 [Example 202] — recorded IC50 = 5.9 nM

Reported IC50 for CCCC[C@@H](C(=O)O)[C@@H](Cc1ccc(-c2ccc(S(N)(=O)=O)cc2)cc1)c1nn[nH]n1 [Example 184] was 900 nM
